Field: Caco-2 Int. Perm. Provide a value for each of the compounds that follow.
- Tested on: Caco-2 monolayers
- assay details: in vitro
- test parameters: mean value of P(A−B) and P(B−A)
*1 amine or outer side, *2 acyl side, *3 side chain or, on linkers, in order; H or OH if unused. Where a SMILES comes first, the peptide text is derived from it. [ ]: non-standard residue; d: D form. X5 = C=CCn1cc(C[C@@H](C(=O)[*:2])N(C)[*:1])c2ccccc21; NMeLeu(5-OH,4R) = CN[C@@H](C[C@@H](C)CO)C(=O)O; Phe(βR-OMe) = CO[C@H](c1ccccc1)[C@H](N)C(=O)O; NMeL = CN[C@@H](CC(C)C)C(=O)O

compound C=CCn1cc(C[C@H]2C(=O)N(C)[C@@H](C[C@@H](C)CO)C(=O)N[C@@H](C)C(=O)N[C@@H]([C@H](OC)c3ccccc3)C(=O)N[C@@H](C(C)C)C(=O)N(C)[C@@H](CC(C)C)C(=O)N[C@@H](C(C)C)C(=O)N2C)c2ccccc21 [SI-60] (cyclo(A[Phe(βR-OMe)]V[NMeL]V[X5][NMeLeu(5-OH,4R)])) , Caco-2 Int. Perm observed: 61.5 10-6 cm s-1

compound CO[C@H](c1ccc(OCc2cn(CCCCCn3cc(COc4ccc([C@@H](OC)[C@@H]5NC(=O)[C@H](C)NC(=O)[C@H](C[C@@H](C)CO)N(C)C(=O)[C@H](Cc6cn(C)c7ccccc67)NC(=O)[C@H](C(C)C)NC(=O)[C@H](CC(C)C)N(C)C(=O)[C@H](C(C)C)NC5=O)cc4)nn3)nn2)cc1)[C@@H]1NC(=O)[C@H](C)NC(=O)[C@H](C[C@@H](C)CO)N(C)C(=O)[C@H](Cc2cn(C)c3ccccc23)NC(=O)[C@H](C(C)C)NC(=O)[C@H](CC(C)C)N(C)C(=O)[C@H](C(C)C)NC1=O , Caco-2 Int. Perm observed: 1.60 10-6 cm s-1

compound CO[C@H](c1ccccc1)[C@@H]1NC(=O)[C@H](C)NC(=O)[C@H](C[C@@H](C)CO)N(C)C(=O)[C@H](Cc2cn(C)c3ccccc23)N(C)C(=O)[C@H](Cc2cn(CCOCCOCCn3cc(C[C@@H]4NC(=O)[C@H](CC(C)C)N(C)C(=O)[C@H](C(C)C)NC(=O)[C@H]([C@H](OC)c5ccccc5)NC(=O)[C@H](C)NC(=O)[C@H](C[C@@H](C)CO)N(C)C(=O)[C@H](Cc5cn(C)c6ccccc56)N(C)C4=O)nn3)nn2)NC(=O)[C@H](CC(C)C)N(C)C(=O)[C@H](C(C)C)NC1=O , Caco-2 Int. Perm observed: 0.4 10-6 cm s-1

compound CO[C@H](c1ccc(OCc2cn(CCCCCn3cc(COc4ccc([C@@H](OC)[C@@H]5NC(=O)[C@H](C)NC(=O)[C@H](C[C@@H](C)CO)N(C)C(=O)[C@H](Cc6cn(C)c7ccccc67)N(C)C(=O)[C@H](C(C)C)NC(=O)[C@H](CC(C)C)N(C)C(=O)[C@H](C(C)C)NC5=O)cc4)nn3)nn2)cc1)[C@@H]1NC(=O)[C@H](C)NC(=O)[C@H](C[C@@H](C)CO)N(C)C(=O)[C@H](Cc2cn(C)c3ccccc23)N(C)C(=O)[C@H](C(C)C)NC(=O)[C@H](CC(C)C)N(C)C(=O)[C@H](C(C)C)NC1=O , Caco-2 Int. Perm observed: 3.7 10-6 cm s-1

compound CO[C@H](c1ccccc1)[C@@H]1NC(=O)[C@H](C)NC(=O)[C@H](C[C@@H](C)CO)N(C)C(=O)[C@H](Cc2cn(Cc3cn(CCCCCn4cc(Cn5cc(C[C@H]6C(=O)N(C)[C@@H](C[C@@H](C)CO)C(=O)N[C@@H](C)C(=O)N[C@@H]([C@H](OC)c7ccccc7)C(=O)N[C@@H](C(C)C)C(=O)N(C)[C@@H](CC(C)C)C(=O)N[C@@H](C(C)C)C(=O)N6C)c6ccccc65)nn4)nn3)c3ccccc23)N(C)C(=O)[C@H](C(C)C)NC(=O)[C@H](CC(C)C)N(C)C(=O)[C@H](C(C)C)NC1=O , Caco-2 Int. Perm observed: 1.5 10-6 cm s-1

compound CO[C@H](c1ccccc1)[C@@H]1NC(=O)[C@H](C)NC(=O)[C@H](C[C@@H](C)CO)N(C)C(=O)[C@H](Cc2cn(C)c3ccccc23)N(C)C(=O)[C@H](Cc2cn(CCCCCn3cc(C[C@@H]4NC(=O)[C@H](CC(C)C)N(C)C(=O)[C@H](C(C)C)NC(=O)[C@H]([C@H](OC)c5ccccc5)NC(=O)[C@H](C)NC(=O)[C@H](C[C@@H](C)CO)N(C)C(=O)[C@H](Cc5cn(C)c6ccccc56)N(C)C4=O)nn3)nn2)NC(=O)[C@H](CC(C)C)N(C)C(=O)[C@H](C(C)C)NC1=O , Caco-2 Int. Perm observed: 0.3 10-6 cm s-1

compound COC(c1ccccc1)C1NC(=O)C(C)NC(=O)C(CC(C)CO)N(C)C(=O)C(Cc2cn(Cc3cn(CCOCCOCCOCCOCCn4cc(Cn5cc(CC6NC(=O)C(C(C)C)NC(=O)C(CC(C)C)N(C)C(=O)C(C(C)C)NC(=O)C(C(OC)c7ccccc7)NC(=O)C(C)NC(=O)C(CC(C)CO)N(C)C6=O)c6ccccc65)nn4)nn3)c3ccccc23)NC(=O)C(C(C)C)NC(=O)C(CC(C)C)N(C)C(=O)C(C(C)C)NC1=O (stereo not shown) , Caco-2 Int. Perm observed: 0.4 10-6 cm s-1
